subject.of.test: MASP-2 CCP2-SP (Homo sapiens (Human))
assay.text: MASP-2 co-crystallization, X-ray crystallography and structure analysis (H-bonds, van der Waals contacts)
Design: unit not given beside the values
setup.conditions: Table A5-2 pharmacophore distance, S3/S4 region
Where a name gives a salt, the structure may show the parent alone.
measured.parameter: d(O2,H3)

> print(dat)
                                    compound  quantitative.readout
 1  N=C(N)c1ccc(CNC(=O)C(CF)NC(=O)[C@H](N)CCc2ccccc2)cc1 (stereo partly drawn) [compound 1050, Dihydrochloride]                  2.72
 2  C[C@H](NC(=O)[C@H](N)CCCc1ccccc1)C(=O)NCc1ccc(C(=N)N)cc1.Cl.Cl [1042_3]                  6.75
 3  Cc1nc(N)ccc1CNC(=O)[C@H](C)NC(=O)[C@H]1C[C@H](Cc2ccccc2)CN1                  4.37
 4  C[C@H](NC(=O)[C@H]1C[C@H](Cc2ccccc2)CN1)C(=O)NCc1ccc(C(=N)N)cc1.Cl.Cl [1306_1]                  5.26
 5  Cc1nc(N)ccc1CNC(=O)[C@H](C)NC(=O)[C@H]1C[C@H](Cc2ccc(-c3ccccc3)cc2)CN1                  4.26
 6  C[C@H](NC(=O)[C@@H](CCc1ccccc1)NCc1ccc(C(=O)N2CCOCC2)cc1)C(=O)NCc1ccc(C(=N)N)cc1.Cl.Cl                  3.10
 7  C[C@H](NC(=O)[C@H]1C[C@@H](c2ccccc2)CCN1)C(=O)NCc1cc(Cl)ccc1O.Cl [1078_7]                  3.26
 8  C[C@H](NC(=O)[C@@H](CCc1ccccc1)NCCCc1ccc(O)cc1)C(=O)NCc1ccc(C(=N)N)cc1.Cl.Cl                  5.36
 9  C[C@H](NC(=O)[C@H]1Cc2c([nH]c3ccccc23)CN1)C(=O)NCc1ccc(C(=N)N)cc1.Cl.Cl [1097_1]                  4.58
10  C[C@H](NC(=O)[C@H]1C[C@@H](c2ccccc2)CCN1)C(=O)NCc1cc(Cl)ccc1O.Cl [1078_14]                  2.58
11  C[C@H](NC(=O)[C@H]1C[C@@H](c2ccccc2)CCN1)C(=O)NCc1cnc2[nH]cc(Cl)c2c1                  2.89
12  Cc1nc(N)ccc1CNC(=O)[C@H](C)NC(=O)[C@H]1C[C@@H](Cc2ccccc2)CCN1                  4.10

----------
The reader will find reported van der Waals contact distance, TRP 655 CA to compound atom values listed item by item below.
subject.of.test: MASP-2 CCP2-SP (Homo sapiens (Human), UniProt O00187)
Sequence (O00187 445-686): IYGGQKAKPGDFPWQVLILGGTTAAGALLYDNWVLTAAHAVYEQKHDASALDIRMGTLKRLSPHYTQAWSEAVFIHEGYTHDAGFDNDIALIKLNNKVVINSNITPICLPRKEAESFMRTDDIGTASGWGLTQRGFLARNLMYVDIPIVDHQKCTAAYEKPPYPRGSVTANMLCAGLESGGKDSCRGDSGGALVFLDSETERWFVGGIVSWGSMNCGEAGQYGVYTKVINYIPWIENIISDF
Sequence (O00187 364-432 partner): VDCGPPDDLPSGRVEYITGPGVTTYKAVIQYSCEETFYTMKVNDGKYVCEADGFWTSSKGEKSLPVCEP
assay.text: MASP-2 co-crystallization, X-ray crystallography and structure analysis (H-bonds, van der Waals contacts)
setup.conditions: Table A2-12
Where a name gives a salt, the structure may show the parent alone.
measured.parameter: van der Waals contact distance, TRP 655 CA to compound atom

> print(dat)
                                   molecule                           subject.of.test  quantitative.readout
1  Cc1nc(N)ccc1CNC(=O)[C@H](C)NC(=O)[C@H]1C[C@H](Cc2cc(-c3ccccc3)cs2)CN1 [compound 1399, Dihydrochloride]  MASP-2 CCP2-SP (Homo sapiens (Human), UniProt O00187)                  3.43
2  Cc1nc(N)ccc1CNC(=O)C(C)NC(=O)[C@H]1C[C@H](c2cccc(-c3ccccc3)c2)CN1 (stereo in doubt) [compound 1360]  MASP-2 CCP2-SP (Homo sapiens (Human), UniProt O00187)                  3.44
3  Cc1nc(N)ccc1CNC(=O)[C@H](C)NC(=O)[C@H]1C[C@H](Cc2ccccc2)CN1 [compound 1304]  MASP-2 CCP2-SP (Homo sapiens (Human), UniProt O00187)                  3.42
4  Cc1nc(N)ccc1CNC(=O)[C@H](C)NC(=O)[C@H]1C[C@H](Cc2cc(Cl)cc(Cl)c2)CN1 [compound 1435, Dihydrochloride]  MASP-2 CCP2-SP (Homo sapiens (Human), UniProt O00187)                  3.41
5  Cc1nc(N)ccc1CNC(=O)[C@H](C)NC(=O)[C@H]1C[C@H](Cc2ccccc2-c2ccccc2)CN1 [compound 1373, Di-trifluoroacetate salt]  MASP-2 CCP2-SP (Homo sapiens (Human), UniProt O00187)                  3.44
6  O=c1oc(-c2ccccc2[N+](=O)[O-])nc2ccccc12 [compound 14]  MASP-2 CCP2-SP (Homo sapiens (Human), UniProt O00187)                  3.69
7  C[C@H](NC(=O)[C@H]1C[C@@H](c2ccccc2)CCN1)C(=O)NCc1ccc(C(=N)N)cc1 (stereo in doubt) [compound 1065]  MASP-2 CCP2-SP (Homo sapiens (Human), UniProt O00187)                  3.46
8  C[C@H](NC(=O)[C@H](N)CCc1ccccc1)C(=O)NCc1ccc(N)nc1 [compound 1007]  MASP-2 CCP2-SP (Homo sapiens (Human), UniProt O00187)                  3.31

----------
The reader will find reported d(O1,O2) values listed item by item below.
subject.of.test: MASP-2 CCP2-SP (Homo sapiens (Human))
assay.text: MASP-2 co-crystallization, X-ray crystallography and structure analysis (H-bonds, van der Waals contacts)
Design: unit not given beside the values
setup.conditions: Table A5-1 pharmacophore: distance between elements, S2/S1 region
From the text: This example illustrates the preparation of recombinant MASP-2 protein, based on UniProt O00187, human mannan-binding lectin serine protease 2. Expression constructs for human MASP-2 CCP2-SP and CCP2-SP-6HIS were generated for recombinant expression in E. coli cells. […]
Counter-ions that a name gives are not always drawn.
measured.parameter: d(O1,O2)

> print(dat)
                                   compound  quantitative.readout
1  C[C@H](NC(=O)[C@H]1C[C@@H](c2ccccc2)CCN1)C(=O)NCc1cc(Cl)ccc1O.Cl [1078_1]                  3.05
2  O=c1oc(-c2ccccc2[N+](=O)[O-])nc2ccccc12 [compound 14]                  5.28
3  C[C@H](NC(=O)[C@H]1C[C@@H](c2ccccc2)CCN1)C(=O)NCc1cc(Cl)ccc1O.Cl [1078_16]                  3.11
4  C[C@H](NC(=O)[C@H]1C[C@@H](c2ccccc2)CCN1)C(=O)NCc1cc(Cl)ccc1O.Cl [1078_3]                  3.17
5  Cc1nc(N)ccc1CNC(=O)[C@H](C)NC(=O)[C@H]1C[C@H](Cc2cc(-c3ccccc3)cs2)CN1 [compound 1399, Dihydrochloride]                  3.33
6  CC(NC(=O)C1CC(Cc2ccccc2)CN1)C(=O)NCc1cnc2c(c1)c(Cl)cn2C.Cl.Cl (mixture of isomers) [1450_A]                  3.11

----------
subject.of.test: MASP-2 CCP2-SP (Homo sapiens (Human), UniProt O00187)
assay.text: MASP-2 co-crystallization, X-ray crystallography and structure analysis (H-bonds, van der Waals contacts)
setup.conditions: Table A6-2 pharmacophore angle
Counter-ions that a name gives are not always drawn.
measured.parameter: a(O2, N2, C2)

> print(dat)
                                    molecule  quantitative.readout
 1  C[C@H](NC(=O)[C@H]1C[C@@H](c2ccccc2)CCN1)C(=O)NCc1cc(Cl)ccc1O.Cl [1078_15]                124.17
 2  C[C@H](NC(=O)[C@H](N)C1Cc2ccccc2C1)C(=O)NCc1ccc2c(N)nccc2c1.Cl.Cl [1088_B]                140.65
 3  Cc1nc(N)ccc1CNC(=O)[C@H](C)NC(=O)[C@H]1C[C@@H](c2ccccc2)CCN1 [compound 1253, Dihydrochloride]                130.77
 4  C[C@H](NC(=O)[C@H](N)CCCc1ccccc1)C(=O)NCc1ccc(C(=N)N)cc1.Cl.Cl [1042_2]                139.99
 5  CC(NC(=O)C(CCc1ccccc1)NCc1ccc(C(=O)N2CCOCC2)cc1)C(=O)NCc1ccc(C(=N)N)cc1.Cl.Cl (stereo not drawn)                168.69
 6  C[C@H](NC(=O)[C@H]1C[C@@H](c2ccccc2)CCN1)C(=O)NCc1cc(Cl)ccc1O.Cl [1078_14]                129.57
 7  C[C@H](NC(=O)[C@H]1C[C@@H](c2ccccc2)CCN1)C(=O)NCc1cc(Cl)ccc1O.Cl [1078_13]                127.57
 8  N=C(N)c1ccc(CNC(=O)[C@@H]2CCN2C(=O)[C@H](NCC(=O)O)C2Cc3ccccc3C2)cc1                110.31
 9  Cc1nc(N)ccc1CNC(=O)[C@H](C)NC(=O)[C@H]1C[C@@H](c2ccccc2)CCN1C                131.10
10  C[C@H](NC(=O)[C@H](N)CCCc1ccccc1)C(=O)NCc1ccc(C(=N)N)cc1.Cl.Cl [1042_1]                140.47
11  C[C@H](NC(=O)[C@H]1C[C@@H](c2ccccc2)CCN1)C(=O)NCc1cc(Cl)ccc1O.Cl [1078_11]                120.15
12  N=C(N)c1ccc(CNC(=O)C(CF)NC(=O)[C@H](N)CCc2ccccc2)cc1 (stereo partly drawn) [compound 1050, Dihydrochloride]                159.29
13  C[C@H](NC(=O)[C@H]1Cc2c([nH]c3ccccc23)CN1)C(=O)NCc1ccc(C(=N)N)cc1.Cl.Cl [1097_1]                125.76
14  C[C@H](NC(=O)[C@H](N)CCCc1ccccc1)C(=O)NCc1ccc(C(=N)N)cc1.Cl.Cl [1042_3]                129.44
15  C[C@H](NC(=O)[C@@H](CCc1ccccc1)NCc1ccc(C(=O)N2CCOCC2)cc1)C(=O)NCc1ccc(C(=N)N)cc1.Cl.Cl                163.28
16  Cc1nc(N)ccc1CNC(=O)[C@H](C)NC(=O)[C@H]1C[C@@H](c2ccccc2)CCN1CCC(=O)O [compound 1411, Trifluoroacetate salt]                130.32
17  C[C@H](NC(=O)[C@H]1Cc2c([nH]c3ccccc23)CN1)C(=O)NCc1ccc(C(=N)N)cc1.Cl.Cl [1097_2]                128.45
18  C[C@H](NC(=O)[C@H]1C[C@@H](c2ccccc2)CCN1)C(=O)NCc1cc(Cl)ccc1O.Cl [1078_5]                114.27
19  C[C@H](NC(=O)[C@H]1C[C@@H](c2ccccc2)CCN1)C(=O)NCc1cc(Cl)ccc1O.Cl [1078_16]                122.62
20  C[C@H](NC(=O)[C@H]1C[C@@H](c2ccccc2)CCN1)C(=O)NCc1ccc(C(=N)N)cc1 (stereo in doubt)                124.85
21  C[C@H](NC(=O)[C@H]1C[C@@H](c2ccccc2)CCN1)C(=O)NCc1cc(Cl)ccc1O.Cl [1078_3]                126.01
22  Cc1nc(N)ccc1CNC(=O)[C@H](C)NC(=O)[C@H]1C[C@@H](Cc2ccccc2)CCN1                130.69
23  C[C@H](NC(=O)[C@H]1C[C@@H](c2ccccc2)CCN1)C(=O)NCc1cc(Cl)ccc1O.Cl [1078_4]                126.96
24  Cc1nc(N)ccc1CNC(=O)[C@H](C)NC(=O)[C@H]1C[C@@H](c2cccc3ccccc23)CCN1.Cl.Cl [1297_2]                127.48
